Where do the numbers come from? From patent US4705805A.

Tested on: rabbit blood platelets (platelet rich plasma), collagen-induced aggregation
Assay: inhibition of platelet aggregation in rabbit platelet rich plasma (in vitro), induced by collagen
Type: cell-based
Settings: Oryctolagus cuniculus, Platelet; rabbit PRP; 1 μg/ml; read-out: percentage of inhibition, collagen
Items are presented alongside their recorded inhibition at 1 µg/mL.
Entry rule: numbers only, all in %.

Please review the following examples before continuing.
Qu. Fill blank: measured inhibition at 1 µg/mL of the compound O=C(NCCO)c1ccccc1SSc1ccccc1C(=O)NCCO is ____.
Ans. 39.2

Qu. Same again, this time with CC(O)CNC(=O)c1ccccc1SSc1ccccc1C(=O)NCC(C)O (stereo not drawn)
Ans. 25.7

Qu. Same again, this time with O=C(c1ccccc1SSc1ccccc1C(=O)N1CCOCC1)N1CCOCC1 [Compound XXVII, 2,2'-dithiobis(benzmorpholide)]
Ans. 40

More entries:
Qu. Fill blank: measured inhibition at 1 µg/mL of the compound CN1CCN(C(=O)c2ccccc2SSc2ccccc2C(=O)N2CCN(C)CC2)CC1 [Compound XXXII, 2,2'-dithiobis(N'-methylbenzpiperazide)] is ____.
Ans. 2

Qu. Same again, this time with O=C(NCCCO)c1ccccc1SSc1ccccc1C(=O)NCCCO
Ans. 8

Qu. Same again, this time with O=C(NCCO)c1cc(Cl)ccc1SSc1ccc(Cl)cc1C(=O)NCCO
Ans. 26

---

Tested on: rabbit blood platelets (platelet rich plasma), collagen-induced aggregation
Experiment: inhibition of platelet aggregation in rabbit platelet rich plasma (in vitro), induced by collagen
Assay type: cell-based
Conditions: Oryctolagus cuniculus, Platelet; rabbit PRP; 100 μg/ml; read-out: percentage of inhibition, collagen
Assign class by inhibition at 100 µg/mL: not lower than 90% means YES; lower than 90% means NO.

Below, 2 compounds whose answers are already recorded.
Qu. Has O=C(c1ccccc1SSc1ccccc1C(=O)N(c1ccccc1)c1ccccc1)N(c1ccccc1)c1ccccc1 [Compound XIII, 2,2'-dithiobis(N-diphenylbenzamide)] a recorded inhibition at 100 µg/mL greater than or equal to 90%?
Ans. NO

Qu. Same again, this time with CCCCCCCCCCCCCCCC(=O)OCCNC(=O)c1ccccc1SSc1ccccc1C(=O)NCCOC(=O)CCCCCCCCCCCCCCC
Ans. NO

More entries:
Qu. Has CCCCCCCCCCCC(=O)OCCCNC(=O)c1ccccc1SSc1ccccc1C(=O)NCCCOC(=O)CCCCCCCCCCC a recorded inhibition at 100 µg/mL greater than or equal to 90%?
Ans. NO

Qu. Same again, this time with O=C(NC(CO)(CO)CO)c1ccccc1SSc1ccccc1C(=O)NC(CO)(CO)CO
Ans. YES

Qu. Same again, this time with COCCNC(=O)c1ccccc1SSc1ccccc1C(=O)NCCOC
Ans. YES

Qu. Same again, this time with CCCCNC(=O)c1ccccc1SSc1ccccc1C(=O)NCCCC [Compound I, 2,2'-dithiobis(N-n-butylbenzamide)]
Ans. YES

Qu. Same again, this time with CCCCN(CCCC)C(=O)c1ccccc1SSc1ccccc1C(=O)N(CCCC)CCCC [Compound VIII, 2,2'-dithiobis(N-dibutylbenzamide)]
Ans. NO

Qu. Same again, this time with O=C(NCC(O)c1ccccc1)c1ccccc1SSc1ccccc1C(=O)NCC(O)c1ccccc1 (stereo not drawn)
Ans. NO

---

Tested on: rabbit blood platelets (platelet rich plasma), ADP-induced aggregation
Experiment: inhibition of platelet aggregation in rabbit platelet rich plasma (in vitro), induced by ADP
Format: cell-based
Conditions: Oryctolagus cuniculus, Platelet; rabbit PRP; ADP 10^-5 M; 3 μg/ml; read-out: percentage of inhibition, ADP
Description: In this example, the inhibition of platelet aggregation in rabbit platelet rich plasma (in vitro) is tested. […] The PRP (0.9 ml) is placed in a silicon-coated cuvett of the aggregometer. […] Compounds promoting aggregation are then added and the absorbancy of the solution is measured and the percent inhibition of aggregation is calculated according to the following equation: [formula] […]
Property name: inhibition at 3 µg/mL (%)
Entry rule: numbers only, all in %.

Qu. Fill blank: measured inhibition at 3 µg/mL of the compound CN1CCN(C(=O)c2ccccc2SSc2ccccc2C(=O)N2CCN(C)CC2)CC1 [Compound XXXII, 2,2'-dithiobis(N'-methylbenzpiperazide)] is ____.
Ans. 26

Qu. Same again, this time with O=C(NCCO)c1ccccc1SSc1ccccc1C(=O)NCCO [Compound III]
Ans. 33.4

Qu. Same again, this time with O=C(NCCCN1CCOCC1)c1ccccc1SSc1ccccc1C(=O)NCCCN1CCOCC1 [Compound XL]
Ans. 26

Qu. Same again, this time with CC(O)CNC(=O)c1ccccc1SSc1ccccc1C(=O)NCC(C)O (stereo not drawn) [Compound V]
Ans. 25.5

More entries:
Qu. Fill blank: measured inhibition at 3 µg/mL of the compound O=C(NCCO)c1cc(Cl)ccc1SSc1ccc(Cl)cc1C(=O)NCCO [Compound XXXI] is ____.
Ans. 0
